# Test system: RAW-Dual
# experiment notes: NF-kB SEAP reporter activity, fold change vs agonist alone; higher = enhanced NF-kB activity
# condition label: library stock concentration (final ~1000-fold dilution): 10 mM; cytotoxicity flag (confluency mask): not cytotoxic; agonist: MPLA (TLR4) […]
In all, about 2,900 compounds were measured (“NF-kB SEAP reporter activity, fold change vs agonist alone”: median about 0.99, highest 2% from about 2.6 on). Many of the other results were omitted from the sample, so the highest values are more common in it than they were.

compound: CC1(C)OC(=O)C=CC2(C)C1CC(=O)C1(C)C2CCC2(C)C(c3ccoc3)OC(=O)C3OC321 (stereo not given)
NF-kB SEAP reporter activity: 1.03
--
compound: CN(C)CCCNC(=O)c1ccc(-c2cc(O)c3ncccc3c2)cc1
NF-kB SEAP reporter activity: 1
--
compound: CCN(CC)CCCCC(NC(=O)C(CC(C)C)NC(=O)C(C)NC(=O)C(Cc1ccccc1)NC(=O)c1ccc(C(C)(C)C)cc1)C(=O)NC(CO)C(=O)OC (stereo not given)
NF-kB SEAP reporter activity: 0.945
--
compound: COC(=O)C(CCSC)NC(=O)c1ccc(NCC(N)CS)cc1-c1ccccc1.Cl (stereo not given)
NF-kB SEAP reporter activity: 1.22
--
compound: CC(C)NCC(C(=O)N1CCN(c2ncnc3c2C(C)CC3O)CC1)c1ccc(Cl)cc1 (stereo not given)
NF-kB SEAP reporter activity: 1.13

----------
# System: RAW-Dual
# experiment notes: NF-kB SEAP reporter activity, fold change vs agonist alone; higher = enhanced NF-kB activity
# condition label: library stock concentration (final ~1000-fold dilution): 10 mM; cytotoxicity flag (confluency mask): not cytotoxic; agonist: MPLA (TLR4) […]
Over roughly 2,900 compounds, “NF-kB SEAP reporter activity, fold change vs agonist alone” has its median near 0.99; the highest 2% begin near 2.6. Only a selection was taken, and the highest values are over-represented in it overall.

molecule: CC(C)(OC1OC(CO)C(O)C(O)C1O)C1Cc2cc3ccc(=O)oc3cc2O1 (centres undefined)
NF-kB SEAP reporter activity: 1.19

molecule: O=C(O)c1ccc(/C=C2/SC(=S)N(Cc3cccc(C(F)(F)F)c3)C2=O)cc1
NF-kB SEAP reporter activity: 0.727

molecule: C#Cc1cccc(Nc2ncnc3cc(OC)c(NC(=O)N4CC5CCN(C)C5C4)cc23)c1 (centres undefined)
NF-kB SEAP reporter activity: 1.4

molecule: C=CC1(C)CC(OC(=O)CSC(C)(C)CNC(=O)C(N)C(C)C)C2(C)C(C)CCC3(CCC(=O)C32)C(C)C1O.Cl (centres undefined)
NF-kB SEAP reporter activity: 1.25

molecule: Cn1cc(-c2[nH]c3cc(NC(=O)C(N)C4CCCCC4)cc4c3c2C=NNC4=O)cn1 (centres undefined)
NF-kB SEAP reporter activity: 2.16

molecule: Nc1cc(F)ccc1NC(=O)/C=C/c1cnn(C/C=C/c2ccccc2)c1
NF-kB SEAP reporter activity: 1.2

molecule: CC(C)(C)C1NC(=O)OC2CCCC2OC/C=C/C(F)(F)c2nc3ccccc3nc2OC2CC(C(=O)NC3(C(=O)NS(=O)(=O)C4(C)CC4)CC3C(F)F)N(C2)C1=O (centres undefined)
NF-kB SEAP reporter activity: 2.15

molecule: CCC(Nc1ncnc2[nH]cnc12)c1oc2ccccc2c(=O)c1-c1cccc(F)c1 (centres undefined)
NF-kB SEAP reporter activity: 0.924

molecule: COc1ccccc1-c1cc(Nc2cccc(CS(N)(=O)=O)c2)ncn1
NF-kB SEAP reporter activity: 2.59

molecule: O=C(c1ccccc1)C(O)O
NF-kB SEAP reporter activity: 1.19

molecule: Br.CN(C)CCCC1(c2ccc(F)cc2)OCc2cc(C#N)ccc21 (centres undefined)
NF-kB SEAP reporter activity: 1.01

molecule: CN1C2CCC1CC(OC(c1ccccc1)c1ccccc1)C2.CS(=O)(=O)O (centres undefined)
NF-kB SEAP reporter activity: 1.29

molecule: Cc1n[nH]c2ccc(-c3cncc(OCC(N)Cc4ccccc4)c3)cc12 (centres undefined)
NF-kB SEAP reporter activity: 0.967

molecule: O.c1cnc2c(c1)ccc1cccnc12
NF-kB SEAP reporter activity: 2.1

----------
Catalogue of NF-kB SEAP reporter activity readings, one per entry.
# Tested on: RAW-Dual
# experiment notes: NF-kB SEAP reporter activity, fold change vs agonist alone; higher = enhanced NF-kB activity
# condition label: library stock concentration (final ~1000-fold dilution): 10 mM; cytotoxicity flag (confluency mask): cytotoxic (confluency <70% of control); agonist: Imiquimod (TLR7) […]
Whole data set: some 2,900 compounds, median “NF-kB SEAP reporter activity, fold change vs agonist alone” near 0.99, cut for the highest 2% near 2.6. Only a selection was taken, and the highest values are over-represented in it overall.
reported property: NF-kB SEAP reporter activity

molecule: COc1ccc(-c2nc(N3CCOCC3)c3sc(CN(C)c4ncc(C(=O)NO)cn4)cc3n2)cn1
endpoint result: 2.88

molecule: Cc1sc2c(c1C)C(c1ccc(Cl)cc1)=NC(CC(=O)NCCCCNC(=O)COc1cccc3c1C(=O)N(C1CCC(=O)NC1=O)C3=O)c1nnc(C)n1-2 (stereo not given)
endpoint result: 1.89

molecule: CCC1(O)C(=O)OCc2c1cc1n(c2=O)Cc2cc3c(CN(C)C)c(O)ccc3nc2-1.Cl (stereo not given)
endpoint result: 2.3

molecule: CS(=O)(=O)O.O=C(Nc1cccc(Cl)c1)Nc1ncc(CCNc2ncnc3ccsc23)s1
endpoint result: 0.503

molecule: Oc1c(Cl)cc(Cl)cc1Sc1cc(Cl)cc(Cl)c1O
endpoint result: 1.81

molecule: CCCCc1nc2cc(/C=C/C(=O)NO)ccc2n1CCN(CC)CC
endpoint result: 2.43

molecule: CC(C)(C)OC(=O)Nc1ccc(-c2cc(C(=O)NCCCCCCC(=O)NO)no2)cc1
endpoint result: 0.912

molecule: Cc1cncc(CN2CCC(=C3c4ccc(Cl)cc4CCc4cccnc43)CC2)c1.O=C(O)/C=C/C(=O)O
endpoint result: 1.02

molecule: Cc1ccc(NC(=O)Nc2cc(-c3ccccc3-c3nnn[nH]3)ccc2N(CC(C)C)CC(C)C)cc1
endpoint result: 0.81

molecule: CCC(=C(c1ccccc1)c1ccc(OCCN(C)C)cc1)c1ccccc1
endpoint result: 1.53

----------
# NF-kB SEAP reporter activity annotations
# Test system: RAW-Dual
# experiment notes: NF-kB SEAP reporter activity, fold change vs agonist alone; cytotoxicity flag (confluency mask): not cytotoxic; higher = enhanced NF-kB activity
# condition label: agonist: ODN 1826 (TLR9) 0.5 ug/mL
Over roughly 2,900 compounds, “NF-kB SEAP reporter activity, fold change vs agonist alone” has its median near 0.99; the highest 2% begin near 2.6. What follows is part of a selection rich in the highest values, with near analogues and random picks from the rest.

compound: CC(C(=O)O)c1cccc(C(=O)c2ccccc2)c1 (centres undefined) (library stock concentration (final ~1000-fold dilution): 10 mM)
NF-kB SEAP reporter activity: 1.01
//
compound: O=C(O)c1ccc(-c2c[nH]c3ncc(-c4ccccc4)cc23)cc1C1CCCC1 (library stock concentration (final ~1000-fold dilution): 10 mM)
NF-kB SEAP reporter activity: 0.388
//
compound: Nc1nc(=O)n(C2CSC(CO)O2)cc1F (centres undefined) (library stock concentration (final ~1000-fold dilution): 10 mM)
NF-kB SEAP reporter activity: 1.1
//
compound: O=c1ncnc2[nH][nH]cc1-2 (library stock concentration (final ~1000-fold dilution): 10 mM)
NF-kB SEAP reporter activity: 1.03
//
compound: Cc1c(C(=O)Nc2ccc(N3CC(C)OC(C)C3)nc2)cccc1-c1ccc(OC(F)(F)F)cc1 (centres undefined) (library stock concentration (final ~1000-fold dilution): 10 mM)
NF-kB SEAP reporter activity: 1.35
//
compound: CC(C)n1cnc2c(NCCc3ccc(O)cc3)nc(-c3csc4ccccc34)nc21 (library stock concentration (final ~1000-fold dilution): 10 mM)
NF-kB SEAP reporter activity: 1.56
//
compound: O=C(c1c(F)ccc(NS(=O)(=O)N2CCC(F)C2)c1F)c1c[nH]c2ncc(-c3cnc(C4CC4)nc3)cc12 (centres undefined) (library stock concentration (final ~1000-fold dilution): 10 mM)
NF-kB SEAP reporter activity: 1.42
//
compound: CC(NCc1ccc(OCc2cccc(F)c2)cc1)C(N)=O (centres undefined) (library stock concentration (final ~1000-fold dilution): 10 mM)
NF-kB SEAP reporter activity: 0.933
//
compound: CCN(C)S(=O)(=O)Nc1ccc(F)c(C(=O)c2c[nH]c3ncc(-c4cnc(C5CC5)nc4)cc23)c1F (library stock concentration (final ~1000-fold dilution): 10 mM)
NF-kB SEAP reporter activity: 1.55

----------
# Test system: RAW-Dual
# experiment notes: NF-kB SEAP reporter activity, fold change vs agonist alone; cytotoxicity flag (confluency mask): not cytotoxic; higher = enhanced NF-kB activity
# condition label: agonist: LPS (TLR4) 0.1 ug/mL
In all, about 2,900 compounds were measured (“NF-kB SEAP reporter activity, fold change vs agonist alone”: median about 0.99, highest 2% from about 2.6 on). The list comes from a sample in which the highest values are over-represented; it also holds close analogues and randomly drawn compounds.
Answer Criterion not met if NF-kB SEAP reporter activity is under 1, and Criterion met if it is 1 or more.

compound: Cl.Cn1cc(C(=O)Nc2ccc3c(c2)OCCO3)c2ccccc2c1=O (library stock concentration (final ~1000-fold dilution): 10 mM)
classification: Criterion met
//
compound: C#Cc1cccc(Nc2ncnc3cc(OCCOC)c(OCCOC)cc23)c1 (library stock concentration (final ~1000-fold dilution): 10 mM)
classification: Criterion met
//
compound: COc1cc2ncnc(Nc3cc(Br)c(O)c(Br)c3)c2cc1OC (library stock concentration (final ~1000-fold dilution): 10 mM)
classification: Criterion met
//
compound: CCn1cc(C(=O)O)c(=O)c2cc(F)c(N3CCN(C)CC3)cc21.CS(=O)(=O)O (library stock concentration (final ~1000-fold dilution): 10 mM)
classification: Criterion not met
//
compound: CCN(CC)CCNC(=O)c1c(C)[nH]c(/C=C2\C(=O)Nc3ccc(F)cc32)c1C.O=C(O)CC(O)C(=O)O (library stock concentration (final ~1000-fold dilution): 10 mM)
classification: Criterion not met
//
compound: CC(C(=O)Nc1cccc(N=Cc2c(O)ccc3ccccc23)c1)c1ccccc1 (stereo not drawn) (library stock concentration (final ~1000-fold dilution): 10 mM)
classification: Criterion met
//
compound: CC(NC(=Nc1cccc2ncccc12)NC#N)c1ccccc1 (stereo not drawn) (library stock concentration (final ~1000-fold dilution): 10 mM)
classification: Criterion met
//
compound: Cl.NCc1c[nH]c(=S)n1C1CCc2c(F)cc(F)cc2C1 (stereo not drawn) (library stock concentration (final ~1000-fold dilution): 10 mM)
classification: Criterion not met
//
compound: C#Cc1cccc(Nc2ncnc3cc(OCCOC)c(OCCO)cc23)c1.Cl (library stock concentration (final ~1000-fold dilution): 10 mM)
classification: Criterion met
//
compound: CN(C)Cc1ccc(S(=O)(=O)n2ccc(/C=C/C(=O)NO)c2)cc1 (library stock concentration (final ~1000-fold dilution): 10 mM)
classification: Criterion met
//
compound: O=C(Nc1ccncc1)c1cc([N+](=O)[O-])ccc1Cl (library stock concentration (final ~1000-fold dilution): 10 mM)
classification: Criterion not met
//
compound: O=C(Nc1ccc([N+](=O)[O-])cc1Cl)c1cc(Cl)ccc1O (library stock concentration (final ~1000-fold dilution): 10 mM)
classification: Criterion met
//
compound: CNCCN1CCC(OCc2ccccc2)CC1.Cl.Cl (library stock concentration (final ~1000-fold dilution): 10 mM)
classification: Criterion met
//
compound: COc1cc2ncnc(Nc3ccc(O)cc3)c2cc1OC (library stock concentration (final ~1000-fold dilution): 10 mM)
classification: Criterion not met
//
compound: COc1cc2ncnc(Nc3ccc(O)c(Br)c3)c2cc1OC (library stock concentration (final ~1000-fold dilution): 10 mM)
classification: Criterion met
//
compound: C#Cc1cccc(Nc2ncnc3cc4c(cc23)OCCOCCOCCO4)c1 (library stock concentration (final ~1000-fold dilution): 10 mM)
classification: Criterion met
//
compound: C#Cc1cccc(Nc2ncnc3cc(OC)c(NC(=O)N4CC5CCN(C)C5C4)cc23)c1 (stereo not drawn) (library stock concentration (final ~1000-fold dilution): 10 mM)
classification: Criterion met
//
compound: CC(C)(C)NC(=O)c1cncn1C1CCN(c2ccc(-c3nnc(C(F)(F)F)o3)cn2)CC1 (library stock concentration (final ~1000-fold dilution): 10 mM)
classification: Criterion met
